SUBJECT_OF_TEST: T1, human Nectin-4 (protein used in the fluorescence polarisation direct and competition binding assays) (human, UniProt Q96NY8 32-349)
T1 construct: It may be the Gly32-Ser349 FLAG construct described for SPR
T1 sequence (looked up): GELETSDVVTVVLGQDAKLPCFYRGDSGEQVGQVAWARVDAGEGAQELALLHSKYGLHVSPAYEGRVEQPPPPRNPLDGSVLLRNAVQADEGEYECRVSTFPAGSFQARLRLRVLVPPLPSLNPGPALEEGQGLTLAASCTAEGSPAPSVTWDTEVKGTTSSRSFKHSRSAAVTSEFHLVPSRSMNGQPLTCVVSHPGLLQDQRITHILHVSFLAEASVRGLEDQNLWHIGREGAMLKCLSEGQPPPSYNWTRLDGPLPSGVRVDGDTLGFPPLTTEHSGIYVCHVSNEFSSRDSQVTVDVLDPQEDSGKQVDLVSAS
TEST: fluorescence polarisation competition; competitor: fluorescent tracer SEQ ID NO: 2; 2 experiments
pKi: −log10 of the molar value. *1 amine or outer side, *2 acyl side, *3 side chain or, on linkers, in order; H or OH if unused. Bridges are numbered along the chain shown (N, C = ends). Where no end group is shown, it is not given here. [ ]: non-standard residue; d: D form. TATA = O=C(CC[*:1])N1CN(C(=O)CC[*:2])CN(C(=O)CC[*:3])C1; 1Nal = N[C@@H](Cc1cccc2ccccc12)C(=O)O; Hyp = O=C(O)[C@@H]1C[C@@H](O)CN1; hArg = N=C(N)NCCCC[C@H](N)C(=O)O; βAla = NCCC(=O)O; Sar = CNCC(=O)O
READOUT: pKi

>>> endpoint_value("Ac-[βAla][Sar][Sar][Sar][Sar][Sar]CP[1Nal][dD]CM[hArg]DWSTP[Hyp]WC (linker 7-11-21 via TATA, Bicyclic peptide) [BCY8122: Ac-[B-Ala][Sar5]-(SEQ ID NO: 1), cyclised with TATA]")
8.52
